FYI, the data here is from patent US20240360137A1.

- TARGET OF ASSAY: CDK6/cyclinD3 (Homo sapiens, UniProt Q00534)
- TEST METHOD NOTES: CDKi biochemical assay (TR-FRET, phosphorylation of S780 on RB1 peptide)
- STATED CONDITIONS: CDK6/cyclinD3 10 pM, 1 mM ATP, 60 min at 25° C.
ATTRIBUTE MEASURED: IC50

1) O=C1N([C@@H]2CCC[C@@H](O)C2)c2nc(Nc3c[nH]nc3-c3cnn4ccccc34)ncc2C12CC2 :: 2.54 µM
2) O=C1N([C@@H]2CCC[C@@H](O)C2)c2nc(Nc3c[nH]nc3OC[C@H]3CCOC3)ncc2C12CC2 :: ≥ 10 µM
3) O=C1N([C@@H]2CCC[C@@H](O)C2)c2nc(Nc3c[nH]nc3-c3ccncc3)ncc2C12CC2 :: ≥ 10 µM
4) COCc1n[nH]cc1Nc1ncc2c(n1)N([C@@H]1CCC[C@@H](O)C1)C(=O)C21CC1 :: 4.46 µM
5) CC(=O)N1CC2(CC(COc3n[nH]cc3Nc3ncc4c(n3)N([C@@H]3CCC[C@@H](O)C3)C(=O)C43CC3)C2)C1 :: ≥ 10 µM
6) Cn1ccc(-c2n[nH]cc2Nc2ncc3c(n2)N([C@@H]2CCC[C@@H](O)C2)C(=O)C32CC2)n1 :: ≥ 10 µM
7) CSc1n[nH]cc1Nc1ncc2c(n1)N([C@@H]1CCC[C@@H](O)C1)C(=O)C21CC1 :: ≥ 10 µM

---

Known IC50 of a selection of compounds
- TARGET OF ASSAY: CDK2/CyclinE1 (Homo sapiens, UniProt P24941)
- TEST METHOD NOTES: CDKi biochemical assay (TR-FRET, phosphorylation of S780 on RB1 peptide)
- STATED CONDITIONS: CDK2/CyclinE1 100 pM, 1 mM ATP, 60 min at 25° C.
ATTRIBUTE MEASURED: IC50

1) CC(=O)N1CC2(CC(COc3n[nH]cc3Nc3ncc4c(n3)N([C@@H]3CCC[C@@H](O)C3)C(=O)C43CC3)C2)C1 [Example 53] :: 186 nM
2) O=C1N([C@@H]2CCC[C@@H](O)C2)c2nc(Nc3c[nH]nc3-c3cnn4ccccc34)ncc2C12CC2 [Example 28] :: 11 nM
3) COc1n[nH]cc1Nc1ncc2c(n1)N([C@@H]1CCC[C@@H](O)C1)C(=O)C21CC1 [Example 12] :: 20 nM
4) COCCn1cc(Nc2ncc3c(n2)N([C@@H]2CCC[C@@H](O)C2)C(=O)C32CC2)cn1 [Example 16] :: 49 nM
5) O=C1N([C@@H]2CCC[C@@H](O)C2)c2nc(Nc3c[nH]nc3Cl)ncc2C12CC2 [Example 13] :: 12 nM
6) O=C1N([C@@H]2CCC[C@@H](O)C2)c2nc(Nc3c[nH]nc3OC3CCC(F)(F)C3)ncc2C12CC2 (some centres unmarked) [Example 30] :: 22 nM
7) C[C@]1(O)C[C@H](COc2n[nH]cc2Nc2ncc3c(n2)N([C@@H]2CCC[C@@H](O)C2)C(=O)C32CC2)C1 [Example 65] :: 53 nM
8) Cc1c(-c2n[nH]cc2Nc2ncc3c(n2)N([C@@H]2CCC[C@@H](O)C2)C(=O)C32CC2)cnn1C(F)F [Example 62] :: 17 nM
9) CCOc1n[nH]cc1Nc1ncc2c(n1)N([C@@H]1CCC[C@@H](O)C1)C(=O)C21CC1 [Example 23] :: 15 nM
10) O=C1N([C@@H]2CCC[C@@H](O)C2)c2nc(Nc3c[nH]nc3OCCF)ncc2C12CC2 [Example 39] :: 7 nM
11) Cn1ncc(-c2n[nH]cc2Nc2ncc3c(n2)N([C@@H]2CCC[C@@H](O)C2)C(=O)C32CC2)c1C(F)F [Example 31] :: 21 nM
12) Cc1cc(Nc2ncc3c(n2)N([C@@H]2CCC[C@@H](O)C2)C(=O)C32CC2)[nH]n1 [Example 5] :: 1120 nM
13) Cc1n[nH]cc1Nc1ncc2c(n1)N([C@@H]1CCC[C@@H](O)C1)C(=O)C21CC1 [Example 2] :: 18 nM
14) Cn1ncc(-c2n[nH]cc2Nc2ncc3c(n2)N([C@@H]2CCC[C@@H](O)C2)C(=O)C32CC2)c1C(F)(F)F [Example 84] :: 88 nM
15) O=C1N([C@@H]2CCC[C@@H](O)C2)c2nc(Nc3c[nH]nc3C#Cc3cccnc3)ncc2C12CC2 [Example 36] :: 39 nM
16) O=C1N([C@@H]2CCC[C@@H](O)C2)c2nc(Nc3c[nH]nc3C(F)F)ncc2C12CC2 [Example 3] :: 7 nM
17) COC(=O)c1n[nH]cc1Nc1ncc2c(n1)N([C@@H]1CCC[C@@H](O)C1)C(=O)C21CC1 [Example 4] :: 96 nM
18) O=C1N([C@@H]2CCC[C@@H](O)C2)c2nc(Nc3c[nH]nc3OC[C@H]3COC[C@H]3F)ncc2C12CC2 [Example 75] :: 72 nM
19) N#Cc1n[nH]cc1Nc1ncc2c(n1)N([C@@H]1CCC[C@@H](O)C1)C(=O)C21CC1 [Example 20] :: 8 nM
20) Cc1c(-c2n[nH]cc2Nc2ncc3c(n2)N([C@@H]2CCC[C@@H](O)C2)C(=O)C32CC2)cnn1C [Example 37] :: 31 nM
21) O=C1N([C@@H]2CCC[C@@H](O)C2)c2nc(Nc3c[nH]nc3C(F)(F)F)ncc2C12CC2 [Example 15] :: 39 nM
22) CO[C@H]1C[C@H](Oc2n[nH]cc2Nc2ncc3c(n2)N([C@@H]2CCC[C@@H](O)C2)C(=O)C32CC2)C1 [Example 82] :: 26 nM
23) O=C1N([C@@H]2CCC[C@@H](O)C2)c2nc(Nc3c[nH]nc3OCC3CC3)ncc2C12CC2 [Example 38] :: 8 nM
24) Cn1ccc(-c2n[nH]cc2Nc2ncc3c(n2)N([C@@H]2CCC[C@@H](O)C2)C(=O)C32CC2)n1 [Example 79] :: 50 nM
25) O=C1N([C@@H]2CCC[C@@H](O)C2)c2nc(Nc3c[nH]nc3OCC3(F)COC3)ncc2C12CC2 [Example 48] :: 22 nM
26) CSCc1n[nH]cc1Nc1ncc2c(n1)N([C@@H]1CCC[C@@H](O)C1)C(=O)C21CC1 [Example 68] :: 7 nM
27) O=C1N([C@@H]2CCC[C@@H](O)C2)c2nc(Nc3c[nH]nc3C3CC3)ncc2C12CC2 [Example 14] :: 30 nM
28) O=C1N([C@@H]2CCC[C@@H](O)C2)c2nc(Nc3c[nH]nc3O[C@H]3CC3(F)F)ncc2C12CC2 [Example 69] :: 6 nM
29) O=C1N([C@@H]2CCC[C@@H](O)C2)c2nc(Nc3c[nH]nc3-c3cccnc3)ncc2C12CC2 [Example 61] :: 46 nM

---

- TARGET OF ASSAY: CDK1/CyclinB1 (Homo sapiens, UniProt P06493)
- TEST METHOD NOTES: CDKi biochemical assay (TR-FRET, phosphorylation of S780 on RB1 peptide)
- STATED CONDITIONS: CDK1/CyclinB1 10 pM, 1 mM ATP, 60 min at 25° C.
pIC50: −log10 of the molar value.
ATTRIBUTE MEASURED: pIC50

1. COCc1n[nH]cc1Nc1ncc2c(n1)N([C@@H]1CCC[C@@H](O)C1)C(=O)C21CC1 :: 5.60
2. O=C1N([C@@H]2CCC[C@@H](O)C2)c2nc(Nc3c[nH]nc3OCC3(F)CC3)ncc2C12CC2 :: 6.11
3. O=C1N([C@@H]2CCC[C@@H](O)C2)c2nc(Nc3c[nH]nc3-c3cnn4cccnc34)ncc2C12CC2 :: 6.39
4. CCOc1n[nH]cc1Nc1ncc2c(n1)N([C@@H]1CCC[C@@H](O)C1)C(=O)C21CC1 :: 5.61
5. O=C1N([C@@H]2CCC[C@@H](O)C2)c2nc(Nc3c[nH]nc3OCC3CC3)ncc2C12CC2 :: 5.98
6. CO[C@H]1C[C@H](Oc2n[nH]cc2Nc2ncc3c(n2)N([C@@H]2CCC[C@@H](O)C2)C(=O)C32CC2)C1 :: 5.60
7. O=C1N([C@@H]2CCC[C@@H](O)C2)c2nc(Nc3c[nH]nc3OC[C@H]3CCOC3)ncc2C12CC2 :: 5.12
8. O=C1N([C@@H]2CCC[C@@H](O)C2)c2nc(Nc3c[nH]nc3-c3cnn(C(F)F)c3)ncc2C12CC2 :: 5.64
9. COCCOc1n[nH]cc1Nc1ncc2c(n1)N([C@@H]1CCC[C@@H](O)C1)C(=O)C21CC1 :: 5.53
10. O=C1N([C@@H]2CCC[C@@H](O)C2)c2nc(Nc3c[nH]nc3O[C@@H]3COC[C@H]3F)ncc2C12CC2 :: 5.69
11. O=C1N([C@@H]2CCC[C@@H](O)C2)c2nc(Nc3c[nH]nc3Cl)ncc2C12CC2 :: 6.04
12. Cn1ncc(-c2n[nH]cc2Nc2ncc3c(n2)N([C@@H]2CCC[C@@H](O)C2)C(=O)C32CC2)c1Cl :: 5.69
13. O=C1N([C@@H]2CCC[C@@H](O)C2)c2nc(Nc3c[nH]nc3O[C@H]3COC[C@@H]3F)ncc2C12CC2 :: 5.61
14. Cc1n[nH]cc1Nc1ncc2c(n1)N([C@@H]1CCC[C@@H](O)C1)C(=O)C21CC1 :: 5.92
15. O=C1N([C@@H]2CCC[C@@H](O)C2)c2nc(Nc3c[nH]nc3O[C@@H]3CC3(F)F)ncc2C12CC2 :: 6.09
16. Cc1n[nH]cc1Nc1ncc2c(n1)N([C@H]1C[C@H](O)CC(C)(C)C1)C(=O)C21CC1 :: 5.22
17. O=C1N([C@@H]2CCC[C@@H](O)C2)c2nc(Nc3c[nH]nc3-c3cnn4ccncc34)ncc2C12CC2 :: 5.66
18. CSCc1n[nH]cc1Nc1ncc2c(n1)N([C@@H]1CCC[C@@H](O)C1)C(=O)C21CC1 :: 6.01
19. N#CC1(COc2n[nH]cc2Nc2ncc3c(n2)N([C@@H]2CCC[C@@H](O)C2)C(=O)C32CC2)CC1 :: 5.38
20. [2H]C([2H])([2H])Oc1n[nH]cc1Nc1ncc2c(n1)N([C@@H]1CCC[C@@H](O)C1)C(=O)C21CC1 :: 5.58
21. O=C1N([C@@H]2CCC[C@@H](O)C2)c2nc(Nc3c[nH]nc3OC3CC(F)(F)C3)ncc2C12CC2 :: 5.42
22. O=C1N([C@@H]2CCC[C@@H](O)C2)c2nc(Nc3c[nH]nc3OCC3(F)COC3)ncc2C12CC2 :: 5.49
